Exercise: state measured half-life for each of the molecules provided.
PROTOCOL_TEXT: Half life in Sprague-Dawley rat at 10 mg/kg, ip measured upto 24 hrs by LC-MS/MS analysis
Assay type: ADME, organism-based
CONDITION_PARAMETERS: in vivo
State the answer as a number, implicitly in h.

stdin: Given the molecule C#CCN(CCCC(=O)Nc1cccc2c1CN(C1CCC(=O)NC1=O)C2=O)CCN(C)c1cc(OC)c(Nc2nccc(-c3cn(C)c4ccccc34)n2)cc1NC(=O)C=C (configuration not stated) , what is its reported half-life?
stdout: 1.85

stdin: Note, next up: C#CCN(CCC(=O)Nc1cccc2c1CN(C1CCC(=O)NC1=O)C2=O)CCN(C)c1cc(OC)c(Nc2nccc(-c3cn(C)c4ccccc34)n2)cc1NC(=O)C=C (configuration not stated)
stdout: 2.17

###

TGT: Protein cereblon/Epidermal growth factor receptor (Homo sapiens, UniProt P00533+Q96SW2, L858R/T790M)
Sequence (P00533 25-1210 T790M/L858R limits assumed, stated change not applied): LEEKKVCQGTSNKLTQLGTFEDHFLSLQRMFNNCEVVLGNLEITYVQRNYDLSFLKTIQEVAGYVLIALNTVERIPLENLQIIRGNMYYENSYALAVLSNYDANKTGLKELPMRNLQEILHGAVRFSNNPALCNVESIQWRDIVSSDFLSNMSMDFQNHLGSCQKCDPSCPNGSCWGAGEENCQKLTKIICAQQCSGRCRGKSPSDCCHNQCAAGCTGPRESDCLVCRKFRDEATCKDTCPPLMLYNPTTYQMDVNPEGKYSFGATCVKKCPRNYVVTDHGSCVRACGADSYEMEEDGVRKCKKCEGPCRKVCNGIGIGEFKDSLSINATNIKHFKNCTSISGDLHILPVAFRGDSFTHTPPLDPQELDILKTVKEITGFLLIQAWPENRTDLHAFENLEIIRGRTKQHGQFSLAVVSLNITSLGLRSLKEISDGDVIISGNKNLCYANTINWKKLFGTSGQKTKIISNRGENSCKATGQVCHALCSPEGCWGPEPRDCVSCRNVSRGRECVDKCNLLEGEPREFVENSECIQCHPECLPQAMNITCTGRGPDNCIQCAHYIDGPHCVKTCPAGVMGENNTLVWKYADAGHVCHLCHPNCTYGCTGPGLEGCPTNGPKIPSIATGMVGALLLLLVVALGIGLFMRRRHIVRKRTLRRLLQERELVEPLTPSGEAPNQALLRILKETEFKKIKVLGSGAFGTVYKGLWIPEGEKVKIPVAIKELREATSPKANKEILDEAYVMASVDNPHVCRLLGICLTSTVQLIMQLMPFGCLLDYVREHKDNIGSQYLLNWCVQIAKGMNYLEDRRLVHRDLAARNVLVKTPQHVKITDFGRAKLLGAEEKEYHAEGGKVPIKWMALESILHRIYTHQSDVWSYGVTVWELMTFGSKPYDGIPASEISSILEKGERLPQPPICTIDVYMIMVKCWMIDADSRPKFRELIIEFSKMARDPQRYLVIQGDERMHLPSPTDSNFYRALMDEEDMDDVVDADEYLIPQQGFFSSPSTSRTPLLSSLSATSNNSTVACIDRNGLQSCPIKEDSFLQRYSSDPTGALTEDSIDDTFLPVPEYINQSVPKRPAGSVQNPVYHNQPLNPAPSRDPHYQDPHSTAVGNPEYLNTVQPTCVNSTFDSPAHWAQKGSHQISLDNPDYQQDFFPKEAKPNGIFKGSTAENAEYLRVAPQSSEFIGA
Sequence (Q96SW2 whole entry, stated change not applied): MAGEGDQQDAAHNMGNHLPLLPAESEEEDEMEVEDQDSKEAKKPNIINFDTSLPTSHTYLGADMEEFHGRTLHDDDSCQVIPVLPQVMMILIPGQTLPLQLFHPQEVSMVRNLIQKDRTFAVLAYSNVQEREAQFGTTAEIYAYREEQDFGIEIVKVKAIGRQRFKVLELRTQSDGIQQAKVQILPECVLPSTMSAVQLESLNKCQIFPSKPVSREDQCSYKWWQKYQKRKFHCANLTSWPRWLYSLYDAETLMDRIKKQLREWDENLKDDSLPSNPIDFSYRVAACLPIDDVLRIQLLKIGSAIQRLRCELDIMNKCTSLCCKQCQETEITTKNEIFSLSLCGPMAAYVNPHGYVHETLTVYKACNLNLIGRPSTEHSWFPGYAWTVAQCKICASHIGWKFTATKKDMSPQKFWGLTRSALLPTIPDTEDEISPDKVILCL
PROTOCOL_TEXT: Protac activity at CRBN/EGFR L858R/T790M mutant in human NCI-H1975 cells assessed as induction of EGFR degradation incubated for 72 hrs by Western blot analysis
Consider the following molecules; for each one, report its pEC50.
Quick note: pEC50 values are minus log10 of concentrations in mol/L.

stdin: What value of pEC50 has been reported for the following molecule? C#CCN(CCC(=O)Nc1cccc2c1CN(C1CCC(=O)NC1=O)C2=O)CCN(C)c1cc(OC)c(Nc2nccc(-c3cn(C)c4ccccc34)n2)cc1NC(=O)C=C (configuration not stated)
stdout: 7.45

stdin: Lookup C#CCN(CCCC(=O)Nc1cccc2c1CN(C1CCC(=O)NC1=O)C2=O)CCN(C)c1cc(OC)c(Nc2nccc(-c3cn(C)c4ccccc34)n2)cc1NC(=O)C=C (configuration not stated)
stdout: 7.88

###

PROTOCOL_TEXT: AUC (0 to t) in Sprague-Dawley rat at 1 mg/kg, iv measured upto 24 hrs by LC-MS/MS analysis
Format: ADME, organism-based
Design: time < 24 hrs, dose 1 mg/kg, route iv
CONDITION_PARAMETERS: in vivo
What AUC(0-t) at 24 h was measured for each of the following?
Please answer in the form of a number followed by its unit of measurement.

stdin: Suppose we examine the compound C#CCN(CCCC(=O)Nc1cccc2c1CN(C1CCC(=O)NC1=O)C2=O)CCN(C)c1cc(OC)c(Nc2nccc(-c3cn(C)c4ccccc34)n2)cc1NC(=O)C=C (configuration not stated) ; what AUC(0-t) at 24 h value has been reported?
stdout: 483 ng·h/mL

stdin: Next compound: C#CCN(CCC(=O)Nc1cccc2c1CN(C1CCC(=O)NC1=O)C2=O)CCN(C)c1cc(OC)c(Nc2nccc(-c3cn(C)c4ccccc34)n2)cc1NC(=O)C=C (configuration not stated)
stdout: 460 ng·h/mL

###

Test system: BaF3
PROTOCOL_TEXT: Antiproliferative activity against mouse BaF3 harbouring EGFR L858R/T790M mutant assessed as inhibition of cell growth incubated for 72 hrs by MTS assay
Assay type: functional, cell-based
CONDITION_PARAMETERS: BaF3, 72 h
EXPERIMENTAL_ENDPOINT: pIC50
Notebook: values listed as pIC50 are -log10 of the concentration (mol/L).

stdin: Sample O=C1CCC(N2C(=O)c3cccc(NCCOCCOCCOCCN4CCN(c5ccc(-c6ccc7c(c6)C(=O)N(C(C(=O)Nc6nccs6)c6ccccc6)C7)cn5)CC4)c3C2=O)C(=O)N1 (stereo unspecified) — what was its pIC50?
stdout: 7.30

###

PROTOCOL_TEXT: AUC (0 to t) in Sprague-Dawley rat at 10 mg/kg, ip measured upto 24 hrs by LC-MS/MS analysis
Assay type: ADME, organism-based
Design: dose 10 mg/kg, time < 24 hrs, route ip
CONDITION_PARAMETERS: in vivo
Would you kindly list AUC(0-t) at 24 h for each of these compounds?
# number only, unit ng·h/mL dropped from output

stdin: Please report the recorded AUC(0-t) at 24 h for C#CCN(CCC(=O)Nc1cccc2c1CN(C1CCC(=O)NC1=O)C2=O)CCN(C)c1cc(OC)c(Nc2nccc(-c3cn(C)c4ccccc34)n2)cc1NC(=O)C=C (configuration not stated) .
stdout: 1540

stdin: C#CCN(CCCC(=O)Nc1cccc2c1CN(C1CCC(=O)NC1=O)C2=O)CCN(C)c1cc(OC)c(Nc2nccc(-c3cn(C)c4ccccc34)n2)cc1NC(=O)C=C (configuration not stated) , same question.
stdout: 971

###

PROTOCOL_TEXT: Plasma protein binding in rat assessed as unbound fraction at 1 uM incubated for 4 hrs by rapid equilibrium dialysis method
Assay type: ADME, cell-free
CONDITION_PARAMETERS: read-out: PPB (converted)
Exercise: state measured fraction unbound at 4 h, 1 µM for each of the compounds provided.
Returns: the value as a bare number; no unit string appended.

stdin: I'd like to know its fraction unbound at 4 h, 1 µM. The compound in question is C#CCN(CCCC(=O)Nc1cccc2c1CN(C1CCC(=O)NC1=O)C2=O)CCN(C)c1cc(OC)c(Nc2nccc(-c3cn(C)c4ccccc34)n2)cc1NC(=O)C=C (stereo not drawn)
stdout: 0.002

stdin: Would you kindly repeat that for C#CCN(CCC(=O)Nc1cccc2c1CN(C1CCC(=O)NC1=O)C2=O)CCN(C)c1cc(OC)c(Nc2nccc(-c3cn(C)c4ccccc34)n2)cc1NC(=O)C=C (stereo not drawn) ?
stdout: 0.001

stdin: And C=CC(=O)Nc1cc(Nc2nccc(-c3cn(C)c4ccccc34)n2)c(OC)cc1N(C)CCN(C)C ?
stdout: 0.0133

###

PROTOCOL_TEXT: AUC (0 to infinity) in Sprague-Dawley rat at 1 mg/kg, iv measured upto 24 hrs by LC-MS/MS analysis
Type: ADME, organism-based
Set-up: dose 1 mg/kg, time < 24 hrs, route iv
CONDITION_PARAMETERS: Sprague-Dawley, in vivo
EXPERIMENTAL_ENDPOINT: AUC(0-inf) (ng·h/mL)
Express it in ng·h/mL; write the number only.

stdin: Requested read-out: AUC(0-inf). Entry: C#CCN(CCC(=O)Nc1cccc2c1CN(C1CCC(=O)NC1=O)C2=O)CCN(C)c1cc(OC)c(Nc2nccc(-c3cn(C)c4ccccc34)n2)cc1NC(=O)C=C (stereo unspecified)
stdout: 461
